Property measured: log10 MIC (log10 of the value in µg/mL)
Response schema: value (number) is log10 of MIC in units of µg/mL.

Input line: Lab note: need log10 MIC with Cryptococcus neoformans 22-21 for entry Cc1ccncc1CCC(=O)N[C@H](C)[C@](O)(Cn1cncn1)c1ccc(F)cc1F , please look it up.
Output line: 0.90

Input line: Lab note: need log10 MIC with Cryptococcus neoformans 22-21 for entry C[C@@H](NC(=O)CCc1ccc(Cl)c(F)c1)[C@](O)(Cn1cncn1)c1ccc(F)cc1F , please look it up.
Output line: -0.30

Input line: Lab note: need log10 MIC with Cryptococcus neoformans 22-21 for entry C[C@@H](NC(=O)CCc1ccc(F)c(F)c1)[C@](O)(Cn1cncn1)c1ccc(F)cc1F , please look it up.
Output line: 0.00

Input line: Lab note: need log10 MIC with Cryptococcus neoformans 22-21 for entry C[C@@H](NC(=O)CCc1ccccc1)[C@](O)(Cn1cncn1)c1ccc(F)cc1F , please look it up.
Output line: -0.60

Input line: Lab note: need log10 MIC with Cryptococcus neoformans 22-21 for entry C[C@@H](NC(=O)CCc1cc(F)cc(F)c1)[C@](O)(Cn1cncn1)c1ccc(F)cc1F , please look it up.
Output line: -0.30

Input line: Lab note: need log10 MIC with Cryptococcus neoformans 22-21 for entry Cc1cccnc1CCC(=O)N[C@H](C)[C@](O)(Cn1cncn1)c1ccc(F)cc1F , please look it up.
Output line: 0.30

Input line: Lab note: need log10 MIC with Cryptococcus neoformans 22-21 for entry Cc1ccc(CCC(=O)N[C@H](C)[C@](O)(Cn2cncn2)c2ccc(F)cc2F)cn1 , please look it up.
Output line: 1.20

Input line: Lab note: need log10 MIC with Cryptococcus neoformans 22-21 for entry Cc1ccc(CCC(=O)N[C@H](C)[C@](O)(Cn2cncn2)c2ccc(F)cc2F)nc1 , please look it up.
Output line: 0.60

###

Property measured: MIC
Don't forget the unit after the number, please.

Input line: Lab note: need MIC with Candida parapsilosis 22-20 for entry Cc1cccnc1CCC(=O)N[C@H](C)[C@](O)(Cn1cncn1)c1ccc(F)cc1F [A19] , please look it up.
Output line: 2 µg/mL

Input line: Lab note: need MIC with Candida parapsilosis 22-20 for entry C[C@@H](NC(=O)CCc1ccc(F)c(F)c1)[C@](O)(Cn1cncn1)c1ccc(F)cc1F [A14] , please look it up.
Output line: 1 µg/mL

Input line: Lab note: need MIC with Candida parapsilosis 22-20 for entry CC(=O)c1ccc(CCC(=O)N[C@H](C)[C@](O)(Cn2cncn2)c2ccc(F)cc2F)cc1 [A11] , please look it up.
Output line: 4 µg/mL

Input line: Lab note: need MIC with Candida parapsilosis 22-20 for entry C[C@@H](NC(=O)CCc1ccc(Cl)c(F)c1)[C@](O)(Cn1cncn1)c1ccc(F)cc1F [A15] , please look it up.
Output line: 0.5 µg/mL

Input line: Lab note: need MIC with Candida parapsilosis 22-20 for entry C[C@@H](NC(=O)CCc1ccccc1)[C@](O)(Cn1cncn1)c1ccc(F)cc1F [A1] , please look it up.
Output line: 0.5 µg/mL

Input line: Lab note: need MIC with Candida parapsilosis 22-20 for entry C[C@@H](NC(=O)CCc1ccc(Cl)c(Cl)c1)[C@](O)(Cn1cncn1)c1ccc(F)cc1F [A16] , please look it up.
Output line: 0.5 µg/mL

Input line: Lab note: need MIC with Candida parapsilosis 22-20 for entry Cc1ccc(CCC(=O)N[C@H](C)[C@](O)(Cn2cncn2)c2ccc(F)cc2F)nc1 [A21] , please look it up.
Output line: 4 µg/mL

Input line: Lab note: need MIC with Candida parapsilosis 22-20 for entry Cc1ccncc1CCC(=O)N[C@H](C)[C@](O)(Cn1cncn1)c1ccc(F)cc1F [A23] , please look it up.
Output line: 16 µg/mL

Input line: Lab note: need MIC with Candida parapsilosis 22-20 for entry CC(=O)N1CCN(c2ccc(OCC3COC(Cn4ccnc4)(c4ccc(Cl)cc4Cl)O3)cc2)CC1 (stereo not drawn) [KCZ, ketoconazole, reference compound] , please look it up.
Output line: 0.5 µg/mL

Input line: Lab note: need MIC with Candida parapsilosis 22-20 for entry OC(Cn1cncn1)(Cn1cncn1)c1ccc(F)cc1F [FCZ, fluconazole, reference compound] , please look it up.
Output line: 4 µg/mL

Input line: Lab note: need MIC with Candida parapsilosis 22-20 for entry Cc1ccc(CCC(=O)N[C@H](C)[C@](O)(Cn2cncn2)c2ccc(F)cc2F)cn1 [A25] , please look it up.
Output line: 64 µg/mL

Input line: Lab note: need MIC with Candida parapsilosis 22-20 for entry C[C@@H](NC(=O)CCc1ccc(C(C)(C)C)cc1)[C@](O)(Cn1cncn1)c1ccc(F)cc1F [A9] , please look it up.
Output line: 0.25 µg/mL

Input line: Lab note: need MIC with Candida parapsilosis 22-20 for entry C[C@@H](NC(=O)CCc1cc(F)cc(F)c1)[C@](O)(Cn1cncn1)c1ccc(F)cc1F [A17] , please look it up.
Output line: 0.5 µg/mL

Input line: Lab note: need MIC with Candida parapsilosis 22-20 for entry Cc1cncc(CCC(=O)N[C@H](C)[C@](O)(Cn2cncn2)c2ccc(F)cc2F)c1 [A24] , please look it up.
Output line: 32 µg/mL

Input line: Lab note: need MIC with Candida parapsilosis 22-20 for entry Cc1ccnc(CCC(=O)N[C@H](C)[C@](O)(Cn2cncn2)c2ccc(F)cc2F)c1 [A20] , please look it up.
Output line: 4 µg/mL

###

test system: FCZ-resistant C. albicans 901; assay: MIC against FCZ-resistant strains, microdilution; format: cell-based, Candida albicans; settings: Candida albicans; FCZ-resistant isolate, 30 °C, 24 h; read-out: MIC, C.alb 901
Task for the reader: assign each of the following compounds its reported MIC.
Respond with the bare value in µg/mL.

Input line: Lab note: need MIC with FCZ-resistant C. albicans 901 for entry C[C@@H](NC(=O)CCc1cc(F)cc(F)c1)[C@](O)(Cn1cncn1)c1ccc(F)cc1F , please look it up.
Output line: 4

Input line: Lab note: need MIC with FCZ-resistant C. albicans 901 for entry C[C@@H](NC(=O)CCc1ccccc1)[C@](O)(Cn1cncn1)c1ccc(F)cc1F , please look it up.
Output line: 1

###

Task for the reader: assign each of the following compounds its reported hemolysis at 1 h, 16 µg/mL.
test: in vitro; details: rabbit
Respond with the bare value in %.

Input line: What measured hemolysis at 1 h, 16 µg/mL goes with C[C@@H](NC(=O)CCc1ccc(C(C)(C)C)cc1)[C@](O)(Cn1cncn1)c1ccc(F)cc1F ?
Output line: 0.78

Input line: What measured hemolysis at 1 h, 16 µg/mL goes with OC(Cn1cncn1)(Cn1cncn1)c1ccc(F)cc1F [FCZ, fluconazole, reference compound] ?
Output line: 1.3

Input line: What measured hemolysis at 1 h, 16 µg/mL goes with C[C@@H]1[C@H](O)[C@@H](C)/C=C/C=C/C=C/C=C/C=C/C=C/C=C/[C@H](O[C@@H]2O[C@H](C)[C@@H](O)[C@H](N)[C@@H]2O)C[C@@H]2O[C@](O)(C[C@@H](O)C[C@@H](O)[C@H](O)CC[C@@H](O)C[C@@H](O)CC(=O)O[C@H]1C)C[C@H](O)[C@H]2C(=O)O ?
Output line: 4.87

Input line: What measured hemolysis at 1 h, 16 µg/mL goes with C[C@@H](NC(=O)CCc1ccccc1)[C@](O)(Cn1cncn1)c1ccc(F)cc1F ?
Output line: 0.95

###

experiment: in vitro; details: rabbit
Property measured: hemolysis at 1 h, 32 µg/mL (%)
Respond with the bare value in %.

Input line: What measured hemolysis at 1 h, 32 µg/mL goes with C[C@@H]1[C@H](O)[C@@H](C)/C=C/C=C/C=C/C=C/C=C/C=C/C=C/[C@H](O[C@@H]2O[C@H](C)[C@@H](O)[C@H](N)[C@@H]2O)C[C@@H]2O[C@](O)(C[C@@H](O)C[C@@H](O)[C@H](O)CC[C@@H](O)C[C@@H](O)CC(=O)O[C@H]1C)C[C@H](O)[C@H]2C(=O)O ?
Output line: 57.7

###

experiment: in vitro; settings: rabbit
Property measured: hemolysis at 1 h, 64 µg/mL (%)
Respond with the bare value in %.

Input line: What measured hemolysis at 1 h, 64 µg/mL goes with C[C@@H]1[C@H](O)[C@@H](C)/C=C/C=C/C=C/C=C/C=C/C=C/C=C/[C@H](O[C@@H]2O[C@H](C)[C@@H](O)[C@H](N)[C@@H]2O)C[C@@H]2O[C@](O)(C[C@@H](O)C[C@@H](O)[C@H](O)CC[C@@H](O)C[C@@H](O)CC(=O)O[C@H]1C)C[C@H](O)[C@H]2C(=O)O ?
Output line: 100
